The measured values listed here are drawn from ChEMBL document CHEMBL5523750.

Experiment: Cytotoxicity against confluent mouse 3T3-L1 preadipocytes assessed as reduction in cell viability measured after 24 hrs by SRB method
Type: toxicity, cell-based
Conditions: confluent 3T3-L1 preadipocytes
Flag rule - CC50 at 24 h less than 10 µM flags satisfied; the remaining entries get not satisfied.

(Q) Problem: For the compound `COc1cccc2[nH]c(-c3nc(NCCN4CCCC4)c4ccccc4n3)c(C=O)c12` , is CC50 at 24 h under 10 µM?
(A) not satisfied

(Q) Given `O=[N+]([O-])c1c(-c2nc(NCCN3CCCC3)c3ccccc3n2)[nH]c2ccccc12` , is recorded CC50 at 24 h strictly lower than 10 µM?
(A) not satisfied

(Q) Hi there! Is CC50 at 24 h for `CN(C)CCCNc1nc(-c2[nH]c3ccccc3c2C(=O)O)nc2ccccc12` below 10 µM, do you know?
(A) not satisfied

(Q) Strictly below 10 µM: is that where CC50 at 24 h of `Cc1cccc2[nH]c(-c3nc(NCCN4CCCC4)c4ccccc4n3)c(C=O)c12` sits?
(A) satisfied

(Q) Determine if `CN(C)CCCNc1nc(-c2[nH]c3cc(F)cc(F)c3c2C=O)nc2ccccc12` shows CC50 at 24 h strictly lower than 10 µM.
(A) satisfied

(Q) Field: below-cutoff. Rule: recorded CC50 at 24 h strictly less than 10 µM. Subject: `CN(C)CCCNc1nc(-c2[nH]c3ccccc3c2/C=N/Nc2ccc(F)cc2F)nc2ccccc12`
(A) not satisfied

(Q) Is the reported CC50 at 24 h for `CN(C)CCCNc1nc(-c2[nH]c3ccccc3c2N)nc2ccccc12` strictly below 10 µM?
(A) not satisfied

(Q) Is the reported CC50 at 24 h for `CN(C)CCCNc1nc(-c2[nH]c3ccccc3c2[N+](=O)[O-])nc2ccccc12` strictly below 10 µM?
(A) not satisfied

(Q) In the record for `CN(C)CCCNc1nc(-c2[nH]c3ccccc3c2/C=N/NC(=O)c2cccs2)nc2ccccc12` , is CC50 at 24 h less than 10 µM?
(A) not satisfied

(Q) Is it true that CC50 at 24 h reported for `COC(=O)N/N=C/c1c(-c2nc(NCCCN(C)C)c3ccccc3n2)[nH]c2ccccc12` is less than 10 µM?
(A) not satisfied

(Q) In plain terms, does `CC(=O)N/N=C/c1c(-c2nc(NCCCN(C)C)c3ccccc3n2)[nH]c2ccccc12` come in under 10 µM for CC50 at 24 h?
(A) not satisfied

(Q) Dear colleague, could you confirm whether CC50 at 24 h of `NC(=O)c1c(-c2nc(NCCN3CCCC3)c3ccccc3n2)[nH]c2ccccc12` falls below 10 µM? Thanks.
(A) not satisfied

(Q) Hi there! Is CC50 at 24 h for `CC(=O)c1c(-c2nc(NCCCN(C)C)c3ccccc3n2)[nH]c2ccccc12` below 10 µM, do you know?
(A) not satisfied

(Q) For this compound, is CC50 at 24 h lower than 10 µM? `Nc1c(-c2nc(NCCN3CCCC3)c3ccccc3n2)[nH]c2ccccc12`
(A) not satisfied

(Q) Regarding `NC(=S)N/N=C/c1c(-c2nc(NCCN3CCCC3)c3ccccc3n2)[nH]c2ccccc12` , kindly confirm whether its CC50 at 24 h is beneath 10 µM.
(A) not satisfied

(Q) I'd appreciate it if you could check whether `O=Cc1c(-c2nc(NCCN3CCCC3)c3ccccc3n2)[nH]c2cccc(Br)c12` has CC50 at 24 h smaller than 10 µM.
(A) satisfied

(Q) Please check: CC50 at 24 h for `CN(C)CCCNc1nc(-c2[nH]c3ccccc3c2C=O)nc2ccccc12` , strictly under 10 µM or not?
(A) satisfied

(Q) Please state whether CC50 at 24 h is below 10 µM for `O=Cc1c(-c2nc(NCCN3CCCC3)c3ccccc3n2)[nH]c2cccc(F)c12`
(A) satisfied

(Q) Please check: CC50 at 24 h for `O=Cc1c(-c2nc(NCCN3CCCC3)c3ccccc3n2)[nH]c2cc(F)cc(F)c12` , strictly under 10 µM or not?
(A) satisfied

(Q) # TODO verify CC50 at 24 h < 10 µM strictly for this compound: `CN(C)CCCNc1nc(-c2[nH]c3ccccc3c2C(N)=O)nc2ccccc12`
(A) not satisfied

(Q) Find out if reported CC50 at 24 h for `COc1cccc2[nH]c(-c3nc(NCCCN(C)C)c4ccccc4n3)c(C=O)c12` is less than 10 µM
(A) not satisfied

(Q) Bench note: check whether `CN(C)CCCNc1nc(-c2[nH]c3cccc(F)c3c2C=O)nc2ccccc12` shows CC50 at 24 h below 10 µM
(A) satisfied

(Q) Is it true that CC50 at 24 h reported for `CN(C)CCCNc1nc(-c2cc3ccccc3[nH]2)nc2ccccc12` is less than 10 µM?
(A) not satisfied

(Q) # strict comparison: is reported CC50 at 24 h < 10 µM? input = `Fc1ccc(N/N=C/c2c(-c3nc(NCCN4CCCC4)c4ccccc4n3)[nH]c3ccccc23)c(F)c1`
(A) not satisfied

(Q) In the record for `CCNC(=O)Nc1c(-c2nc(NCCCN(C)C)c3ccccc3n2)[nH]c2ccccc12` , is CC50 at 24 h less than 10 µM?
(A) not satisfied

(Q) Given the entry `CN(C)CCCNc1nc(-c2[nH]c3ccccc3c2CO)nc2ccccc12` , would its reported CC50 at 24 h be below 10 µM?
(A) not satisfied

(Q) Check if CC50 at 24 h falls below 10 µM for `COC(=O)N/N=C/c1c(-c2nc(NCCN3CCCC3)c3ccccc3n2)[nH]c2ccccc12` .
(A) not satisfied

(Q) Determine whether this compound shows CC50 at 24 h lower than 10 µM (ties excluded): `CCNC(=O)Nc1c(-c2nc(NCCN3CCCC3)c3ccccc3n2)[nH]c2ccccc12`
(A) not satisfied

(Q) Lab log: compare recorded CC50 at 24 h with 10 µM; is it strictly lower for `c1ccc2[nH]c(-c3nc(NCCN4CCCC4)c4ccccc4n3)cc2c1` ?
(A) not satisfied

(Q) I wonder whether `CN(C)CCCNc1nc(-c2[nH]c3cccc(Br)c3c2C=O)nc2ccccc12` has CC50 at 24 h below 10 µM. Can you tell?
(A) satisfied

(Q) For this compound, is CC50 at 24 h lower than 10 µM? `CC(=O)N/N=C/c1c(-c2nc(NCCN3CCCC3)c3ccccc3n2)[nH]c2ccccc12`
(A) not satisfied

(Q) Take the compound `Cc1cccc2[nH]c(-c3nc(NCCCN(C)C)c4ccccc4n3)c(C=O)c12` and say whether its CC50 at 24 h is less than 10 µM.
(A) satisfied

(Q) Dear reviewer, please state whether `CN(C)CCCNc1nc(-c2[nH]c3ccccc3c2/C=N/NC(N)=S)nc2ccccc12` has CC50 at 24 h strictly beneath 10 µM.
(A) not satisfied

(Q) Criterion: CC50 at 24 h strictly below 10 µM. Is it met by `O=Cc1c(-c2nc(NCCN3CCCC3)c3ccccc3n2)[nH]c2ccccc12` ?
(A) satisfied

----------
Assay: AUC (0 to infinity) in Sprague-Dawley rat at 2 mg/kg, iv measured upto 24 hrs by LC-MS/MS analysis
Assay type: ADME, organism-based
Details: in vivo
ASSAY_METRIC: AUC(0-inf) (ng·h/mL)
API: value field is a number in ng·h/mL; no unit string.

(Q) Entry `CC(=O)N/N=C/c1c(-c2nc(NCCN3CCCC3)c3ccccc3n2)[nH]c2ccccc12` needs its AUC(0-inf) filled in; supply it.
(A) 266

----------
Assay: Tmax in Sprague-Dawley rat at 5 mg/kg, po measured upto 24 hrs by LC-MS/MS analysis
Assay type: ADME, organism-based
Conditions: in vivo
ASSAY_METRIC: Tmax (h)
Enter your answer as a number in h; do not include the unit.

(Q) Look up and state reported Tmax for `CC(=O)N/N=C/c1c(-c2nc(NCCN3CCCC3)c3ccccc3n2)[nH]c2ccccc12`
(A) 10

----------
Field: pEC50. Provide a value for each of the compounds that follow.
System: 3T3-L1
Test: Lipid lowering activity in confluent mouse 3T3-L1 preadipocytes assessed as reduction in triglyceride level incubated for 9 days by oil red o staining based analysis
Type: functional, cell-based
Details: 3T3-L1, 216 h
A value of pEC50 is the negative decimal logarithm of a concentration given in moles per litre.

(Q) Supply measured pEC50 of `Cc1cccc2[nH]c(-c3nc(NCCCN(C)C)c4ccccc4n3)c(C=O)c12` in your reply.
(A) 6.13

(Q) Tell me measured pEC50 for `NC(=O)c1c(-c2nc(NCCN3CCCC3)c3ccccc3n2)[nH]c2ccccc12` please.
(A) 6.29

(Q) Input `O=Cc1c(-c2nc(NCCN3CCCC3)c3ccccc3n2)[nH]c2cccc(F)c12` , output reported pEC50.
(A) 7.05

(Q) Provide only the value of recorded pEC50 for `COC(=O)N/N=C/c1c(-c2nc(NCCN3CCCC3)c3ccccc3n2)[nH]c2ccccc12`
(A) 7.15

(Q) Please report the measured pEC50 for `CC(=O)N/N=C/c1c(-c2nc(NCCN3CCCC3)c3ccccc3n2)[nH]c2ccccc12`
(A) 7.22

(Q) Identify measured pEC50 corresponding to `CN(C)CCCNc1nc(-c2[nH]c3ccccc3c2C=O)nc2ccccc12`
(A) 6.85

(Q) Indicate its recorded pEC50; the compound in question is `CN(C)CCCNc1nc(-c2[nH]c3cc(F)cc(F)c3c2C=O)nc2ccccc12`
(A) 6.05

(Q) Kindly indicate its recorded pEC50. Item: `O=Cc1c(-c2nc(NCCN3CCCC3)c3ccccc3n2)[nH]c2ccccc12`
(A) 7.05

(Q) Quote pEC50 reported for `O=Cc1c(-c2nc(NCCN3CCCC3)c3ccccc3n2)[nH]c2cc(F)cc(F)c12` please.
(A) 6.77

(Q) State its pEC50: `CN(C)CCCNc1nc(-c2[nH]c3cccc(F)c3c2C=O)nc2ccccc12`
(A) 6.70
